# Format: cell-based, human
# condition.details: human, Cell viability (%)
Bridge positions count the residues as written; N and C are the ends. Square brackets hold non-standard residues; d marks the D form. Peptide text beside a SMILES is read from it. * marks the point of attachment. Pro(cis-4-guanidino) = NC(N)=N[C@@H]1CN[C@H](C(=O)O)C1; Butanoyl(4-guanidino) = N=C(N)NCCCC(=O)*
The entries below are paired with their reported viability at 24 h, 50 µM.
measure: viability at 24 h, 50 µM (%)

>>> test_result("CC[C@H](C)[C@H](NC(=O)[C@H](CCCNC(=N)N)NC(=O)[C@H]1CCC(=O)NCCCC[C@H](NC(=O)[C@H](Cc2ccccc2)NC(=O)[C@H](Cc2c[nH]c3ccccc23)NC(=O)[C@@H]2C[C@H](NC(=N)N)CN2C(=O)[C@@H](NC(=O)[C@@H](N)Cc2ccccc2)C(C)C)C(=O)N[C@@H](CCCCN)C(=O)N[C@@H](Cc2ccccc2)C(=O)N[C@H](CC(C)C)C(=O)N1)C(=O)N[C@@H](CC(C)C)C(N)=O [Peptide 7, FV(4-guanidino)PWF[KKFle]RIL] (H-FV[Pro(cis-4-guanidino)]WFKKF[dL][dE]RIL-NH2; lactam 6-10)")
18
>>> test_result("CC[C@H](C)[C@H](NC(=O)[C@H](CCCNC(=N)N)NC(=O)[C@H]1CCC(=O)NCCCC[C@H](NC(=O)[C@H](Cc2ccccc2)NC(=O)[C@H](Cc2c[nH]c3ccccc23)NC(=O)[C@@H]2CCCN2C(=O)[C@@H](NC(=O)[C@H](Cc2ccccc2)NC(=O)CCCNC(=N)N)C(C)C)C(=O)N[C@@H](CCCCN)C(=O)N[C@@H](Cc2ccccc2)C(=O)N[C@H](CC(C)C)C(=O)N1)C(=O)N[C@@H](CC(C)C)C(N)=O [Peptide 5, guanidino-GABA-FVPWF[KKFle]RIL] ({Butanoyl(4-guanidino)}-FVPWFKKF[dL][dE]RIL-NH2; lactam 6-10)")
1

====

# Assay type: cell-based, human
# condition.details: human, Cell viability (%)
Bridge positions count the residues as written; N and C are the ends. Square brackets hold non-standard residues; d marks the D form. Peptide text beside a SMILES is read from it. * marks the point of attachment. Propanoyl(3-guanidino) = N=C(N)NCCC(=O)*
measure: viability at 24 h, 100 µM (%)

>>> test_result("CC[C@H](C)[C@H](NC(=O)[C@H](CCCNC(=N)N)NC(=O)[C@H]1CCC(=O)NCCCC[C@H](NC(=O)[C@H](Cc2ccccc2)NC(=O)[C@H](Cc2c[nH]c3ccccc23)NC(=O)[C@@H]2CCCN2C(=O)[C@@H](NC(=O)[C@H](Cc2ccccc2)NC(=O)CCNC(=N)N)C(C)C)C(=O)N[C@@H](CCCCN)C(=O)N[C@@H](Cc2ccccc2)C(=O)N[C@H](CC(C)C)C(=O)N1)C(=O)N[C@@H](CC(C)C)C(N)=O [Peptide 4, guanidino-βAla-FVPWF[KKFle]RIL] ({Propanoyl(3-guanidino)}-FVPWFKKF[dL][dE]RIL-NH2; lactam 6-10)")
0

====

# Assay type: cell-based, human
# condition.details: human, CC50
Bridge positions count the residues as written; N and C are the ends. Square brackets hold non-standard residues; d marks the D form. Peptide text beside a SMILES is read from it. * marks the point of attachment. Pro(cis-4-guanidino) = NC(N)=N[C@@H]1CN[C@H](C(=O)O)C1; X1 = N=C(N)N[C@@H](Cc1ccccc1)C(=O)*
Each entry below lists one item and its recorded CC50 at 24 h value.
measure: CC50 at 24 h (µM)

>>> test_result("CC[C@H](C)[C@H](NC(=O)[C@H](CCCNC(=N)N)NC(=O)[C@H]1CCC(=O)NCCCC[C@H](NC(=O)[C@H](Cc2ccccc2)NC(=O)[C@H](Cc2c[nH]c3ccccc23)NC(=O)[C@@H]2CCCN2C(=O)[C@@H](NC(=O)[C@H](Cc2ccccc2)NC(=N)N)C(C)C)C(=O)N[C@@H](CCCCN)C(=O)N[C@@H](Cc2ccccc2)C(=O)N[C@H](CC(C)C)C(=O)N1)C(=O)N[C@@H](CC(C)C)C(N)=O [Peptide 3, guanidino-FVPWF[KKFle]RIL] (X1-VPWFKKF[dL][dE]RIL-NH2; lactam 5-9)")
38.6
>>> test_result("CC[C@H](C)[C@H](NC(=O)[C@H](CCCNC(=N)N)NC(=O)[C@@H]1CCCNC(=N)NCCC[C@H](NC(=O)[C@H](Cc2ccccc2)NC(=O)[C@H](Cc2c[nH]c3ccccc23)NC(=O)[C@@H]2CCCN2C(=O)[C@@H](NC(=O)[C@@H](N)Cc2ccccc2)C(C)C)C(=O)N[C@@H](CCCCN)C(=O)N[C@@H](Cc2ccccc2)C(=O)N[C@H](CC(C)C)C(=O)N1)C(=O)N[C@@H](CC(C)C)C(N)=O [Peptide 13, FVPWF{OrnKFlOrn}RIL]")
19.7
>>> test_result("CC[C@H](C)[C@H](NC(=O)[C@H](CCCNC(=N)N)NC(=O)[C@H]1CCC(=O)NCCCC[C@H](NC(=O)[C@H](Cc2ccccc2)NC(=O)[C@H](Cc2c[nH]c3ccccc23)NC(=O)[C@@H]2C[C@H](NC(=N)N)CN2C(=O)[C@@H](NC(=O)[C@@H](N)Cc2ccccc2)C(C)C)C(=O)N[C@@H](CCCCN)C(=O)N[C@@H](Cc2ccccc2)C(=O)N[C@H](CC(C)C)C(=O)N1)C(=O)N[C@@H](CC(C)C)C(N)=O [Peptide 7, FV(4-guanidino)PWF[KKFle]RIL] (H-FV[Pro(cis-4-guanidino)]WFKKF[dL][dE]RIL-NH2; lactam 6-10)")
37
